Cited source for all entries: paper PMC4552634

Test system: P. falciparum stage V gametocytes
Parameters: BacTiter-Glo ATP luminescence viability of purified stage V gametocytes in 384-well plates, per cent inhibition versus DMSO
conditions: 48 h, 5 µM; inhibitor
The campaign covered roughly 13,000 compounds. About 3,200 (25%) showed an effect of 50% or more. This is one part of the list.
measurement-label: % Inhibition (%)

# compound, measure-unit, experimental-result
data = [
    ("COc1ccc(-c2ccc(S(=O)(=O)Nc3cc4c(cc3OC(C)C)CCN(C)CC4)cc2)cc1", "%", 10.97),
    ("O=C(/C=C/c1ccc(Cl)c(Cl)c1)NCCCCCN1CCC(NC(=O)Nc2ccccc2Cl)CC1", "%", -61.78),
    ("Cc1cc2cc(NC(=O)Nc3ccnc4ccccc34)ccc2n1C", "%", -17.26),
    ("CN(C)c1cc(NC(=O)Nc2ccccc2)c2ccccc2n1", "%", 30.25),
    ("CCC(C)c1ccc(NC(=O)Nc2ccnc3ccccc23)cc1 (stereo not drawn)", "%", 3.75),
    ("CCCCC1=CC2C(=O)C(C(=O)OC)=CN=C2C=C1OCc1ccccc1 (stereo not drawn)", "%", 62.56),
    ("CC(=O)Nc1ncc(C(=O)Nc2cccc(-c3ccc(-c4nc5ccc(C(F)(F)F)cc5[nH]4)cc3)c2)s1", "%", -28),
    ("Cc1cc(NC(=O)Nc2cccc(N(C)C)c2)c2ccccc2n1", "%", -40.58),
    ("CCCCCCCc1cc(=O)c2ccccc2[nH]1", "%", 46.19),
    ("NC(=O)c1ccc(C(=O)Nc2cccc(-c3csc(-c4nc5ccccc5[nH]4)c3)c2)cc1", "%", -14.2),
    ("CC1(C)Cc2c(oc3ncn(CCn4cnc5oc6c(c5c4=N)CC(C)(C)SC6)c(=N)c23)CS1", "%", -5.815),
    ("Cc1cc(O)c(CN(C)Cc2ccc3c(c2)OCO3)cc1C(C)C", "%", 27),
    ("CC(C)[C@H](NCC(=O)c1ccccc1)C(=O)O", "%", 52.78),
    ("NC(N)=NC(=O)Nc1cc(Cl)c(Cl)c(Br)c1", "%", -17.34),
    ("CCC(CC(C)C(=O)O)=C(c1ccccc1)c1ccccc1 (stereo not drawn)", "%", -2.137),
    ("CCCC[C@H](NC(=O)O[C@H](COc1ccc(OCc2ccccc2)cc1)C(C)(C)C)C(=O)C(=O)Nc1ccn[nH]1", "%", 67.01),
    ("O=c1cc(-c2ccc3ccccc3c2)[nH]c2ccccc12", "%", 4.967),
    ("CCCOc1cc(OCCC)cc(-c2cc(=O)c3ccccc3[nH]2)c1", "%", 63.29),
]
